Origin of the recorded values: PubChem BioAssay AID1851

# target_desc: Cytochrome P450 3A4 (Homo sapiens) (UniProt P08684)
# Sequence (P08684 whole entry, looked up): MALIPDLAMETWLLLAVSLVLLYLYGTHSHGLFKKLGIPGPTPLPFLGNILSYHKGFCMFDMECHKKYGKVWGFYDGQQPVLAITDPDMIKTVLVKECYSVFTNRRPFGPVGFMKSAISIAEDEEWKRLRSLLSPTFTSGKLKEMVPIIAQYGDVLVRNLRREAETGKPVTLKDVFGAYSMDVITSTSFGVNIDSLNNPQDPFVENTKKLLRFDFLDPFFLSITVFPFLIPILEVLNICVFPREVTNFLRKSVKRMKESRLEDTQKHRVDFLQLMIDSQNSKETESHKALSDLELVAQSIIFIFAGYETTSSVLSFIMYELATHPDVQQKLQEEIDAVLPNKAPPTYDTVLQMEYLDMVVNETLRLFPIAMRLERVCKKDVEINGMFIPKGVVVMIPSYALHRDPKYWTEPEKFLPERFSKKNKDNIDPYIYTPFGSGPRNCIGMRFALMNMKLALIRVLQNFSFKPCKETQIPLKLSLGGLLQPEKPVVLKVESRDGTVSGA
# protocol_summary: Cytochrome panel assay with activity outcomes; further: on the % scale 0 is the no-effect control and ±100 the full control effect
# experimental_setup: recombinant CYP, pro-luciferin dealkylation, luminescence, p450-cyp3a4; series mostly up to 57.1 µM
In all, about 16,000 compounds went through this assay and about 5,100 (32%) were called active. Roughly 25% stayed inconclusive and do not appear here. The list shows a part of the results.
observable: activity, negative = inhibition

query: Please provide the recorded activity, negative = inhibition for CCOC(=O)CCN1C(=O)[C@H]2[C@H]3[C@H](O)[C@H](O)C/C(=N/O[C@@H]4O[C@@H](COC(C)=O)[C@@H](OC(C)=O)[C@@H](OC(C)=O)[C@H]4OC(C)=O)[C@@H]3CC[C@@H]2C1=O , tested on Cytochrome P450 3A4 (Homo sapiens) (UniProt P08684).
result: -20.3% [at 11.4 µM] (inactive)

query: Please provide the recorded activity, negative = inhibition for O=C(Nc1ccc(S(=O)(=O)N2CCCC2)cc1)c1ccc(CN2CCOCC2)cc1 , tested on Cytochrome P450 3A4 (Homo sapiens) (UniProt P08684).
result: -3.74% [at 2.29 µM] (inactive)

* * *

# target_desc: Cytochrome P450 3A4 (Homo sapiens) (UniProt P08684)
# protocol_summary: Cytochrome panel assay with activity outcomes; further: on the % scale 0 is the no-effect control and ±100 the full control effect
# experimental_setup: recombinant CYP, pro-luciferin dealkylation, luminescence, p450-cyp3a4; series mostly up to 57.1 µM
Out of some 16,000 compounds screened, about 5,100 (32%) were called active. Inconclusive results (about 25%) are left out. This is one part of the list.
observable: activity, negative = inhibition

Example entries and their recorded answers appear below.
# compound, observable, result
rows = [
    ("COC(=O)c1cn(NC(=O)c2ccc(F)cc2)c(=O)c2ccccc12", "activity, negative = inhibition", "-2.1% [at 2.29 µM] (inactive)"),
    ("CO[C@H]1COC(=O)CCC[C@@H](C)[C@H](OC)COC(=O)[C@@H](C)NC(=O)C/C=C\\[C@@H]1C", "activity, negative = inhibition", "-24.2% [at 11.4 µM] (inactive)"),
    ("CO[C@@H]1COC(=O)CCC[C@@H](C)[C@H](OC)COC(=O)CCC[C@H]1C", "activity, negative = inhibition", "-19.8% [at 11.4 µM] (inactive)"),
    ("COCc1nnc(NC(=O)CSc2ccc(C)cc2)s1", "activity, negative = inhibition", "-22.6% [at 11.4 µM] (inactive)"),
    ("Cc1ccc(S(=O)(=O)Oc2cc(S(=O)(=O)O)cc3cc(S(=O)(=O)O)cc(N)c23)cc1", "activity, negative = inhibition", "0.193% [at 11.4 µM] (inactive)"),
    ("CC(C)C(=O)C(C)(C)CCc1ccccn1", "activity, negative = inhibition", "-11% [at 11.4 µM] (inactive)"),
    ("CO[C@@H]1COC(=O)[C@H](C)NC(=O)[C@@H](C)COC(=O)CCC[C@H]1C", "activity, negative = inhibition", "-21.6% [at 11.4 µM] (inactive)"),
    ("CCOC(=O)CCN1C(=O)[C@H]2[C@@H]3[C@H](O)C=CC(=O)[C@H]3CC[C@H]2C1=O", "activity, negative = inhibition", "-11.5% [at 11.4 µM] (inactive)"),
]

query: Which value of activity, negative = inhibition has been reported for O=C(O)/C=C(/C(=O)O)[C@]12CCN3CC4=CCO[C@@H]5CC(=O)N[C@@H]1[C@H]5[C@H]4C[C@H]32 in the records?
result: 2.64% [at 11.4 µM] (inactive)
